Just for reference, PubChem BioAssay AID1159580 is where these values come from.

protocol_summary: chemical genetic growth profiling, strain panel (AID 1159580);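 note: tested at 20 µM; growth read once vehicle control cultures reached saturation at 30 °C; 1 = growth at the plate median or of vehicle wells; lower values mean less growth of the strain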
test_parameters: S. cerevisiae deletion strains, growth OD, locus YJL092W, strain hpr5, active compounds read low
Hit rate of the full screen: of about 5,500 compounds, about 2,000 (36%) were called active. Not shown: some 18% with an inconclusive outcome. This is one part of the list.
measured_property: normalized growth

| molecule | experimental_value |
| --- | --- |
| S=c1nc[nH]c2nc[nH]c12 | 0.986 |
| OCCN1C[C@@H](O)[C@@H](O)C(O)C1CO (some centres not stated) | 1 |
| NCCSSCCN | 1 |
| Oc1cc(Cl)ccc1Oc1ccc(Cl)cc1Cl | 0.0585 |
| CN(C)CC/C=C1\c2ccccc2Sc2ccc(Cl)cc21 | 0.972 |
| COc1ccc2c(c1OC)C(=O)O[C@@H]2[C@H]1c2cc3c(cc2CCN1C)OCO3 | 0.999 |
| CN(C)C(=S)SSC(=S)N(C)C | 0.0561 |
